This collection of values is drawn from patent EP0183129A1.

assay: Absorption and distribution: concentration in blood and organs after oral administration, bioassay by cup method; type: in vivo; conditions: rat; rats, fasted, 10 mg/kg oral, kidney, 6 hr after administration; Mean ± S.D. (n=5); read-out: Concentration in organs: Kidney
Structures can show the parent of a compound that is named as a salt.
Measured metric: concentration at 6 h (ng/g)

- Molecule: "CCNCC1CCN(c2c(F)cc3c(=O)c(C(=O)O)cn(C4CC4)c3c2F)C1 (centres unmarked) [Example 2, hydrochloride]"
  Obs value: 1860
- Molecule: "CCNCC1CCN(c2c(F)cc3c(=O)c(C(=O)O)cn(C4CC4)c3c2Cl)C1 (centres unmarked)"
  Obs value: 840

* * *

assay: Urinary and bile excretion after oral administration, bioassay by cup method; type: in vivo; conditions: rat; fasted rats, 10 mg/kg oral; urine 0 ~ 24 hr; Mean ± S.D. (n=5); read-out: Recovery, urine
Counter-ions that a name gives are not always drawn.

- Molecule: "CCNCC1CCN(c2c(F)cc3c(=O)c(C(=O)O)cn(C4CC4)c3c2F)C1 (centres unmarked) [Example 2, hydrochloride]"
  dose excreted at 24 h [%]: 13.5
- Molecule: "CCNCC1CCN(c2c(F)cc3c(=O)c(C(=O)O)cn(C4CC4)c3c2Cl)C1 (centres unmarked)"
  dose excreted at 24 h [%]: 7.4

* * *

test system: S. pyogenes 3102; assay: In vitro antibacterial activity, MIC (clinical isolates); format: cell-based; details: Streptococcus pyogenes; S. pyogenes 3102; 10^6 cells/ml; clinical isolate; read-out: MIC
Structures can show the parent of a compound that is named as a salt.
Entries and their measured MIC follow.
Measured metric: MIC (µg/mL)

- Molecule: "NCC1CCN(c2c(F)cc3c(=O)c(C(=O)O)cn(C4CC4)c3c2F)C1 (stereo not shown) [Example 1, hydrochloride]"
  Obs value: 0.05
- Molecule: "CCCNCC1CCN(c2c(F)cc3c(=O)c(C(=O)O)cn(C4CC4)c3c2F)C1 (stereo not shown) [Example 10, hydrochloride]"
  Obs value: 0.2
- Molecule: "CCNCC1CCN(c2c(F)cc3c(=O)c(C(=O)O)cn(C4CC4)c3c2Br)C1 (stereo not shown)"
  Obs value: 0.05
- Molecule: "CC(C)NCC1CCN(c2c(F)cc3c(=O)c(C(=O)O)cn(C4CC4)c3c2F)C1.Cl (stereo not shown)"
  Obs value: 0.2
- Molecule: "CNCC1CCN(c2c(F)cc3c(=O)c(C(=O)O)cn(C4CC4)c3c2Cl)C1 (stereo not shown) [Example 12, hydrochloride]"
  Obs value: 0.05
- Molecule: "CCNCC1CCN(c2c(F)cc3c(=O)c(C(=O)O)cn(C4CC4)c3c2F)C1 (stereo not shown) [Example 2, hydrochloride]"
  Obs value: 0.05
- Molecule: "NCC1CCN(c2c(F)cc3c(=O)c(C(=O)O)cn(C4CC4)c3c2Cl)C1 (stereo not shown) [Example 14, hydrochloride]"
  Obs value: 0.025
- Molecule: "CCNCC1CCN(c2cc3c(cc2F)c(=O)c(C(=O)O)cn3C2CC2)C1.Cl (stereo not shown)"
  Obs value: 0.2
- Molecule: "CN(C)CC1CCN(c2c(F)cc3c(=O)c(C(=O)O)cn(C4CC4)c3c2F)C1 (stereo not shown)"
  Obs value: 0.1
- Molecule: "CN(C)CC1CCN(c2c(F)cc3c(=O)c(C(=O)O)cn(C4CC4)c3c2Cl)C1 (stereo not shown)"
  Obs value: 0.05
- Molecule: "CNCC1CCN(c2cc3c(cc2F)c(=O)c(C(=O)O)cn3C2CC2)C1 (stereo not shown) [Example 9, hydrochloride]"
  Obs value: 0.1
- Molecule: "CCNCC1CCN(c2c(F)cc3c(=O)c(C(=O)O)cn(C4CC4)c3c2Cl)C1 (stereo not shown)"
  Obs value: 0.05
- Molecule: "CNCC1CCN(c2c(F)cc3c(=O)c(C(=O)O)cn(C4CC4)c3c2Br)C1 (stereo not shown)"
  Obs value: 0.05
- Molecule: "NCC1CCN(c2c(F)cc3c(=O)c(C(=O)O)cn(C4CC4)c3c2Br)C1 (stereo not shown)"
  Obs value: 0.05
- Molecule: "CNCC1CCN(c2c(F)cc3c(=O)c(C(=O)O)cn(C4CC4)c3c2F)C1 (stereo not shown) [Example 8, hydrochloride]"
  Obs value: 0.05
- Molecule: "CCNCC1CCN(c2c(F)cc3c(=O)c(C(=O)O)cn(CC)c3c2F)C1 (stereo not shown) [Ref.1, reference compound]"
  Obs value: 0.2
